Record form. Attribute: pIC50. Fill in for each entry.
TARGET_ENTITY: human calcium-sensing receptor (CaSR) (Homo sapiens, UniProt P41180)
Sequence (P41180 20-1078): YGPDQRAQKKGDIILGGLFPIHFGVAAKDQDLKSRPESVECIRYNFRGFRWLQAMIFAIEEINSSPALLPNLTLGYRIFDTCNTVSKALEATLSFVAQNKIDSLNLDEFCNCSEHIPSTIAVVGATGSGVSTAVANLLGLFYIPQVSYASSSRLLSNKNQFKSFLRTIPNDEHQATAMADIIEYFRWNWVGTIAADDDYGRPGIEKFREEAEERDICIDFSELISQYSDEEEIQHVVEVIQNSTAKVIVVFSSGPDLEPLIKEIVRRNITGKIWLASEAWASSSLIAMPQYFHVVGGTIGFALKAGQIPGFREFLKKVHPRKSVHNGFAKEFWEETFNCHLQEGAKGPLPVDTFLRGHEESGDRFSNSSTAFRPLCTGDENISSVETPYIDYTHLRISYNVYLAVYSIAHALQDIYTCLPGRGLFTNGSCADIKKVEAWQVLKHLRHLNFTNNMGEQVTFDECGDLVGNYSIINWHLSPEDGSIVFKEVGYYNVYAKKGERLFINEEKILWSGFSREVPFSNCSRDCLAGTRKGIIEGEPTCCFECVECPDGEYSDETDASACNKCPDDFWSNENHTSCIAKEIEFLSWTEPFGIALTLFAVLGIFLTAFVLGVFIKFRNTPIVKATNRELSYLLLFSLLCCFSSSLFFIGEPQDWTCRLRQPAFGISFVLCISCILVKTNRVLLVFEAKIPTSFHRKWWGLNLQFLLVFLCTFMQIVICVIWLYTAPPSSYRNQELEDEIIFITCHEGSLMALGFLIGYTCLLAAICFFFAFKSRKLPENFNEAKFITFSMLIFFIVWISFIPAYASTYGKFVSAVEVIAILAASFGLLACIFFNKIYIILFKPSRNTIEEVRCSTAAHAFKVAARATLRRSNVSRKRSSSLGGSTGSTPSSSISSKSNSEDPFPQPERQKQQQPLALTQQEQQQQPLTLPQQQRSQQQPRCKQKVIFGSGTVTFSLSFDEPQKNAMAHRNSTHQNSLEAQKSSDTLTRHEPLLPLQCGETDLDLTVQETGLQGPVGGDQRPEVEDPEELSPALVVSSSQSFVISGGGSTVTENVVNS
ASSAY_OVERVIEW: intracellular Ca assay, CaSR antagonist activity in HEK293/hCaSR cells
APPLIED_CONDITIONS: Fura2-AM, inhibition of response to calcium chloride ligand solution, read-out: IC50 values according to the intracellular Ca assay (CaSR antagonist activity)
Experimental: HEK293 cells stably expressing human calcium-sensing receptor (CaSR) (termed HEK293/hCaSR cells) were used. HEK293/hCaSR cells were cultured in a culture medium [DMEM medium containing 0.5 mg/mL Geneticin, 50 Unit/mL penicillin, 50 μg/mL streptomycin and 10% fetal bovine serum (FBS), all manufactured by Invitrogen] to semiconfluent in an incubator at 37° C. under 5% carbon dioxide atmosphere. […]
pIC50: −log10 of the molar value.

// lookup pIC50 | system=human calcium-sensing receptor (CaSR) (Homo sapiens, UniProt P41180) | key= CN(C[C@H](O)CNC(C)(C)Cc1ccc2ccccc2c1)S(=O)(=O)c1ccc(-c2ccc(NC(=O)CCC(=O)O)cc2)cc1
5.52 to 6.00

API: value(readout= pIC50, system= human calcium-sensing receptor (CaSR) (Homo sapiens, UniProt P41180), query= CN(C[C@H](O)CNC(C)(C)CC1Cc2ccccc2C1)S(=O)(=O)c1cc(-c2cc(F)cc(C(=O)O)c2)cc(C(F)(F)F)c1 )
≥ 6.52

Item: CCc1cc(-c2ccc(CCCC(=O)O)cc2)ccc1S(=O)(=O)N(C)C[C@H](O)CNC(C)(C)CCCc1ccccc1 Test system: human calcium-sensing receptor (CaSR) (Homo sapiens, UniProt P41180) Read-out: pIC50 Value: ?
≥ 6.52

API: value(readout=pIC50, system=human calcium-sensing receptor (CaSR) (Homo sapiens, UniProt P41180)) for record CN(C[C@H](O)CNC(C)(C)CCCc1ccccc1)S(=O)(=O)c1cc(NCC(=O)O)cc(C(F)(F)F)c1
≥ 6.52

# returns recorded pIC50 (system: human calcium-sensing receptor (CaSR) (Homo sapiens, UniProt P41180)) for CN(C[C@H](O)CNC(C)(C)CC1Cc2ccccc2C1)S(=O)(=O)c1cccc(-c2ccc(OCC(=O)O)c(Cl)c2)c1
≥ 6.52

What value of pIC50 on human calcium-sensing receptor (CaSR) (Homo sapiens, UniProt P41180) does Cc1cc(CCC(=O)O)sc1-c1cc(C(F)(F)F)cc(S(=O)(=O)N(C)C[C@H](O)CNC(C)(C)CCCc2ccccc2)c1 have?
≥ 6.52

Request: pIC50, test system human calcium-sensing receptor (CaSR) (Homo sapiens, UniProt P41180), entry CN(C[C@H](O)CNC(C)(C)CC1Cc2ccccc2C1)S(=O)(=O)c1ccc(-c2cc(CCC(=O)O)ccc2F)c(F)c1
≥ 6.52

Short answer please: pIC50, human calcium-sensing receptor (CaSR) (Homo sapiens, UniProt P41180), entry CN(C[C@H](O)CNC(C)(C)Cc1ccc2ccccc2c1)S(=O)(=O)c1cccc(-c2ccc(C(=O)O)cc2N)c1
6.00 to 6.52

Record CN(C[C@H](O)CNC(C)(C)CCCc1ccccc1)S(=O)(=O)c1ccc(-c2ccc(CCC(=O)O)cc2)c(Cl)c1 : what is its pIC50 with human calcium-sensing receptor (CaSR) (Homo sapiens, UniProt P41180)?
≥ 6.52

Item CN(C[C@H](O)CNC(C)(C)Cc1ccc2ccccc2c1)S(=O)(=O)c1cccc(-c2ccc(C=CC(=O)O)cc2)c1 with human calcium-sensing receptor (CaSR) (Homo sapiens, UniProt P41180) - pIC50?
6.00 to 6.52

Missing value: pIC50, human calcium-sensing receptor (CaSR) (Homo sapiens, UniProt P41180), entry CN(C[C@H](O)CNC(C)(C)CC1Cc2ccccc2C1)S(=O)(=O)c1cc(F)c(-c2cccc(CCC(=O)O)c2)cc1F . Fill in?
≥ 6.52

Notebook: pull reported pIC50 for human calcium-sensing receptor (CaSR) (Homo sapiens, UniProt P41180), entry CN(C[C@H](O)CNC(C)(C)Cc1ccc2ccccc2c1)S(=O)(=O)c1ccc(-c2ccccc2C=CC(=O)O)cc1
5.52 to 6.00

Hello, I am looking for reported pIC50 with human calcium-sensing receptor (CaSR) (Homo sapiens, UniProt P41180) for CN(C[C@H](O)CNC(C)(C)Cc1ccc2ccccc2c1)S(=O)(=O)c1cccc(-c2ccc(C(=O)O)cc2[N+](=O)[O-])c1 . Could you help?
5.52 to 6.00

Can you look up pIC50 on human calcium-sensing receptor (CaSR) (Homo sapiens, UniProt P41180) for CN(C[C@H](O)CNC(C)(C)Cc1ccc2ccccc2c1)S(=O)(=O)c1ccccc1-c1cccc(C=CC(=O)O)c1 ?
6.00 to 6.52
